experiment: Stability of the compound in PBS buffer assessed as drug residual at 10 uM measured after 72 hrs by LC/MS analysis; type: physicochemical; details: read-out: Stability
REPORTED_METRIC: remaining at 72 h, 10 µM (%)

INSERT INTO measurements (smiles_repr, reported_metric, unit_name, endpoint_value) VALUES
  ('CC(=O)O[C@H]1C(=O)[C@@]2(C)[C@H]([C@H](OC(=O)c3ccccc3)[C@]3(O)C[C@H](OC(=O)[C@H](O)[C@@H](NC(=O)c4ccccc4)c4ccccc4)C(C)=C1C3(C)C)[C@]1(OC(C)=O)CO[C@@H]1C[C@@H]2O', 'remaining at 72 h, 10 µM', '%', 70.3);

----------
assay: Drug uptake in BALB/c mouse xenografted with human […] cells measured in tumor at 17.6 micromol/kg, ip measured after 1 hr; format: ADME, organism-based, Neoplasm; details: dose 17.6 µmol/kg, read-out: Drug uptake
REPORTED_METRIC: concentration at 1 h (ng/g)

INSERT INTO assay_data (compound, unit_name, endpoint_value) VALUES
  ('CC(=O)O[C@H]1C(=O)[C@@]2(C)[C@H]([C@H](OC(=O)c3ccccc3)[C@]3(O)C[C@H](OC(=O)[C@H](O)[C@@H](NC(=O)c4ccccc4)c4ccccc4)C(C)=C1C3(C)C)[C@]1(OC(C)=O)CO[C@@H]1C[C@@H]2O [PACLITAXEL]', 'ng/g', 6470);

----------
test: Drug uptake in BALB/c mouse xenografted with human […] cells measured in tumor at 17.6 micromol/kg, ip measured after 4 hrs; type: ADME, organism-based, Neoplasm; conditions: dose 17.6 µmol/kg, read-out: Drug uptake
REPORTED_METRIC: concentration at 4 h (ng/g)

INSERT INTO results (compound, reported_metric, endpoint_value) VALUES
  ('CC(=O)O[C@H]1C(=O)[C@@]2(C)[C@H]([C@H](OC(=O)c3ccccc3)[C@]3(O)C[C@H](OC(=O)[C@H](O)[C@@H](NC(=O)c4ccccc4)c4ccccc4)C(C)=C1C3(C)C)[C@]1(OC(C)=O)CO[C@@H]1C[C@@H]2O [PACLITAXEL]', 'concentration at 4 h', 2250);
